- measurement.description: qHTS assay to identify small molecule agonists of the sonic hedgehog signaling (Shh) pathway - cell viability counter screen (AID 1259366); also: nearly all actives have a fitted effect of over 50% in size
- experimental.setup: NIH/3T3 Gli1-Luc viability, CellTiter-Fluor, 24 h; series mostly up to 92.4 µM
Results filed as inconclusive are left out. Active and inactive are the calls of the source. Calls follow the shape of the dose curve; as a rule, active = well fitted cell-killing curve with a large enough effect in the repeat runs; inconclusive = weak or mixed curves, or effect the other way; inactive = flat fitted curve, though single readings scatter.
Labels: true (1) for active, false (0) for inactive

compound: OCC1CC2CC1C1CCC(CO)C21 (stereo unspecified)
category.label: false (0)
--
compound: CC(=O)[C@@]1(O)CC[C@H]2[C@@H]3C[C@H](C)C4=CC(=O)CC[C@]4(C)[C@H]3CC[C@@]21C
category.label: false (0)
--
compound: O=C(O)C1CCC(C(=O)O)CC1 (stereo unspecified)
category.label: false (0)
--
compound: CN(C)CC[C@@H](c1ccc(Br)cc1)c1ccccn1
category.label: false (0)
--
compound: CCOC(=S)SSC(=S)OCC
category.label: false (0)
--
compound: Oc1ccc(C(O)CNCCCCCCNCC(O)c2ccc(O)c(O)c2)cc1O (stereo unspecified)
category.label: true (1)

====

- measurement.description: qHTS assay for small molecule activators of the heat shock response signaling pathway (AID 743210);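 also: HeLa cells with beta-lactamase reporter driven by heat shock elements; % is scaled to controls: 0 for no effect and ±100 for the full control effect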
- experimental.setup: HeLa HSE-bla reporter, beta-lactamase ratio, 5 h; series mostly up to 62.6 µM
Results filed as inconclusive are left out. Activity calls are given as the source filed them. Calls follow the shape of the dose curve; as a rule, active = well fitted activation curve with a large enough effect in the signal ratio in the repeat runs, with a control signal flat (not every such curve was filed as active); inconclusive = weak or mixed curves; inactive = flat fitted curve, though single readings scatter; the % refers to the signal ratio.

compound: O=C(O)/C=C/c1cnc[nH]1
activation: inactive
--
compound: O=CNc1ccccc1
activation: inactive
--
compound: CC(C)(Oc1ccc(Cl)cc1)C(=O)OCCCOC(=O)C(C)(C)Oc1ccc(Cl)cc1
activation: inactive
--
compound: O=C(CCN1CCN2CCCC2C1)N1c2ccccc2Sc2ccc(Cl)cc21 (stereo unspecified)
activation: inactive
--
compound: O=c1[nH]cnc2ccccc12
activation: inactive
--
compound: CC(C)CCCCCCOC(=O)c1ccc(C(=O)OCCCCCCC(C)C)c(C(=O)OCCCCCCC(C)C)c1
activation: inactive
--
compound: Cc1cccc(Oc2ccccc2)c1
activation: inactive
--
compound: Cc1ccc(C(N)=O)cc1N
activation: inactive
--
compound: CCN1CCC[C@H]1CNC(=O)c1c(OC)ccc(Br)c1OC
activation: inactive
--
compound: Oc1ccc(Sc2ccc(O)cc2)cc1
activation: inactive
--
compound: Cc1cc(C)c(S(=O)(=O)O)cc1N=Nc1cc(S(=O)(=O)O)c2ccccc2c1O
activation: inactive

====

- measurement.description: qHTS assay to identify small molecule antagonists of the progesterone receptor (PR) signaling pathway - cell viability counter screen (AID 1346798); also: nearly all actives have a fitted effect of over 50% in size
- experimental.setup: PR-UAS-bla HEK293T viability, CellTiter-Glo luminescence, 16 h; series mostly up to 92.4 µM
Inconclusive results are not listed. Activity calls are given as the source filed them. The call rests on the fitted dose curve; in most records, active means well fitted cell-killing curve with a large enough effect in the repeat runs; inconclusive means weak or mixed curves, or effect the other way; inactive means no such curve, though single readings can be large or run the other way.
Possible outcomes: active, inactive

molecule: C=CC[N+]1([C@H]2C[C@H]3[C@@H]4CC[C@H]5C[C@H](OC(C)=O)[C@@H](N6CCCCC6)C[C@]5(C)[C@H]4CC[C@]3(C)[C@H]2OC(=O)CC)CCCCC1
category.label: inactive
//
molecule: FC(F)(F)C(F)(F)C(F)(F)C(F)(F)C(F)(F)C(F)(F)CCI
category.label: inactive
//
molecule: O=c1c2ccccc2nnn1CCl
category.label: inactive
//
molecule: O=C(NS(=O)(=O)/C=C/c1cccs1)c1ccc(F)cc1Br
category.label: inactive
//
molecule: C=Cc1c(C)c2cc3[nH]c(cc4nc(cc5nc(cc1[nH]2)C(C)=C5CCC(=O)O)C(CCC(=O)O)=C4C)c(C)c3C=C
category.label: inactive
//
molecule: CC1(C)[C@H]2CC[C@]1(C)[C@H](O)C2
category.label: inactive
//
molecule: COc1cc(C(C)(C)C)c(O)c(C(C)(C)C)c1
category.label: inactive
//
molecule: CC(C)(C)c1cc(CO)cc(C(C)(C)C)c1O
category.label: inactive
//
molecule: Cc1ccccn1
category.label: inactive
//
molecule: Nc1ccc(C(=O)Nc2ccccc2N)cc1
category.label: active
//
molecule: C[Si](C)O[Si](C)(C)O[Si](C)(C)O[Si](C)C
category.label: inactive
//
molecule: C#CCOC(=O)[C@@H](C)Oc1ccc(Oc2ncc(Cl)cc2F)cc1
category.label: inactive
//
molecule: Cc1ccc(C(=O)C(C)CN2CCCCC2)cc1 (stereo not given)
category.label: inactive
//
molecule: Cn1c(=O)c2c(ncn2CC(O)CO)n(C)c1=O (stereo not given)
category.label: inactive
//
molecule: CCCCC(CC)COCCCN (stereo not given)
category.label: inactive
//
molecule: Nc1cnn([C@@H]2O[C@H](CO)[C@@H](O)[C@H]2O)c(=O)n1
category.label: inactive
//
molecule: O=C(O)Cc1cc(I)c(Oc2ccc(O)c(I)c2)c(I)c1
category.label: inactive
//
molecule: CC(=O)NCCCS(=O)(=O)O
category.label: inactive
//
molecule: COc1ccc([C@@H]2Sc3ccccc3N(CCN(C)C)C(=O)[C@@H]2OC(C)=O)cc1
category.label: active
//
molecule: CCN(CC)CCOC(=O)C1(c2ccccc2)CCCC1
category.label: inactive
//
molecule: CC(C)c1ccccc1C(C)C
category.label: inactive
//
molecule: Cc1ccc(C)o1
category.label: inactive
//
molecule: COc1ccc(OC)c(OC)c1
category.label: inactive
//
molecule: Nc1ccc(C(=O)N2CC3CC(CN(Cc4ccccc4)C3)C2)cc1
category.label: inactive
//
molecule: Oc1ccc(O)c2c(O)cccc12
category.label: inactive

Values were extracted from PubChem BioAssay (Tox21).
